Data credit: patent US9060519B2

Each item that follows carries a reported melting point.

Example molecules with recorded melting point:
C#CCOc1ccc(O/N=C(\C)c2sc(-c3cccnc3)nc2C)nn1 [Compound 1.002]; 152 to 154 °C
C/C(=N\Oc1ccc(C)nn1)c1sc(-c2cccnc2)nc1C [Compound 1.004]; 179 to 181 °C
C/C(=N\Oc1ncccc1Cl)c1sc(-c2cccnc2)nc1C [Compound 1.007]; 126 to 128 °C
COc1cc(OC)nc(O/N=C(/c2sc(-c3cccnc3)nc2Cl)C(F)(F)F)n1 [Compound 1.043]; 109 to 111 °C
C/C(=N\Oc1ncc([N+](=O)[O-])cn1)c1sc(-c2cccnc2)nc1C [Compound 1.018]; 174 to 176 °C

Okay, next one:
Enquiry: Which melting point value is on record for COc1ccc(O/N=C(\C)c2sc(-c3cccnc3)nc2C)nn1 [Compound 1.005] ?
Return: 167 to 169 °C

====

Each item that follows carries a reported melting point.

C/C(=N\Oc1ccc2nnc(C)n2n1)c1sc(-c2cccnc2)nc1C; 200 to 202 °C
Clc1nc(-c2cccnc2)sc1/C(=N/Oc1ncccn1)C1CC1; 127 to 130 °C

Okay, next one:
Enquiry: Which melting point value is on record for CSc1cc(F)cnc1O/N=C(\C)c1sc(-c2cccnc2)nc1C ?
Return: 149 to 151 °C

====

Each item that follows carries a reported melting point.

Example compounds with recorded melting point:
COc1ccc(Cl)c(-c2ccc(O/N=C(\C)c3sc(-c4cccnc4)nc3C)nn2)c1 [Compound 1.003]; 169 to 171 °C
Cc1cc(C)nc(O/N=C(/c2sc(-c3cccnc3)nc2Cl)C2CC2)n1 [Compound 1.045]; 53 to 55 °C

Okay, next one:
Enquiry: Which melting point value is on record for C/C(=N\Oc1ncc(C(F)(F)F)cn1)c1sc(-c2cccnc2)nc1C [Compound 1.015] ?
Return: 165 to 166 °C
